# assay-procedure: Inhibition of recombinant Escherichia coli DNA gyrase AB expressed in Escherichia coli BL21 (DE3) using relaxed pJT519 DNA as substrate preincubated for 20 mins followed by 5'-BODIPY-TMR-TTCTTCTTCT addition and measured after 1 hr by fluorescence anisotropy
pIC50: −log10 of the molar value.
parameter-measured: pIC50

1) C[C@@H]1CN2c3c(cc4c(-n5nccn5)noc4c3F)CC3(C(=O)NC(=O)NC3=O)[C@H]2[C@H](C)O1 :: 6.62
2) Cc1ncnn1-c1noc2c(F)c3c(cc12)CC1(C(=O)NC(=O)NC1=O)[C@H]1[C@H](C)O[C@H](C)CN31 :: 6.47
3) C[C@@H]1CN2c3c(cc4c(-n5ncnc5NCCN5CCOCC5)noc4c3F)CC3(C(=O)NC(=O)NC3=O)[C@H]2[C@H](C)O1 :: 6.51
4) C[C@@H]1CN2c3c(cc4c(N5C(=O)OC[C@@H]5C)noc4c3F)CC3(C(=O)NC(=O)NC3=O)[C@H]2[C@H](C)O1 :: 6.77
5) CNS(=O)(=O)c1cnn(-c2noc3c(F)c4c(cc23)CC2(C(=O)NC(=O)NC2=O)[C@H]2[C@H](C)O[C@H](C)CN42)c1 :: 6.21
6) COCc1ncnn1-c1noc2c(F)c3c(cc12)CC1(C(=O)NC(=O)NC1=O)[C@H]1[C@H](C)O[C@H](C)CN31 :: 5.96
7) C[C@@H]1CN2c3c(cc4c(-n5cc(C#N)cn5)noc4c3F)CC3(C(=O)NC(=O)NC3=O)[C@H]2[C@H](C)O1 :: 6.40
8) C[C@@H]1CN2c3c(cc4c(-n5ccnn5)noc4c3F)CC3(C(=O)NC(=O)NC3=O)[C@H]2[C@H](C)O1 :: 6.66
9) C[C@@H]1CN2c3c(cc4c(-n5ncnc5N)noc4c3F)CC3(C(=O)NC(=O)NC3=O)[C@H]2[C@H](C)O1 :: 7.12
10) C[C@@H]1CN2c3c(cc4c(-n5cnc(C#N)n5)noc4c3F)CC3(C(=O)NC(=O)NC3=O)[C@H]2[C@H](C)O1 :: 5.89
11) COc1ncnn1-c1noc2c(F)c3c(cc12)CC1(C(=O)NC(=O)NC1=O)[C@H]1[C@H](C)O[C@H](C)CN31 :: 6.49
12) C[C@@H]1CN2c3c(cc4c(-n5ncnc5NCCO)noc4c3F)CC3(C(=O)NC(=O)NC3=O)[C@H]2[C@H](C)O1 :: 6.57
13) C[C@@H]1CN2c3c(cc4c(-n5ncnc5NCCN(C)C)noc4c3F)CC3(C(=O)NC(=O)NC3=O)[C@H]2[C@H](C)O1 :: 6.82
14) C[C@@H]1CN2c3c(cc4c(-n5ncnc5C#N)noc4c3F)CC3(C(=O)NC(=O)NC3=O)[C@H]2[C@H](C)O1 :: 6.49
15) C[C@@H]1CN2c3c(cc4c(-n5cncn5)noc4c3Cl)CC3(C(=O)NC(=O)NC3=O)[C@H]2[C@H](C)O1 :: 6.92

* * *

Here the recorded log10 of solubility is given for each entry.
# assay-procedure: Solubility of the compound by high throughput solubility assay
# Type: physicochemical
parameter-measured: log10 of solubility (log10 of the value in µM)

1. C[C@@H]1CN2c3c(cc4c(-n5ncnc5NCC(=O)N5CC[C@@H](N(C)C)C5)noc4c3F)CC3(C(=O)NC(=O)NC3=O)[C@H]2[C@H](C)O1 :: 2.84
2. COCCOc1ncnn1-c1noc2c(F)c3c(cc12)CC1(C(=O)NC(=O)NC1=O)[C@H]1[C@H](C)O[C@H](C)CN31 :: 2.81
3. Cc1ncnn1-c1noc2c(F)c3c(cc12)CC1(C(=O)NC(=O)NC1=O)[C@H]1[C@H](C)O[C@H](C)CN31 :: 1.34
4. C[C@@H]1CN2c3c(cc4c(-n5ccnn5)noc4c3F)CC3(C(=O)NC(=O)NC3=O)[C@H]2[C@H](C)O1 :: 2.11
5. C[C@@H]1CN2c3c(cc4c(-n5ncnc5C#N)noc4c3F)CC3(C(=O)NC(=O)NC3=O)[C@H]2[C@H](C)O1 :: 2.75
6. C[C@@H]1CN2c3c(cc4c(-n5ncnc5N)noc4c3F)CC3(C(=O)NC(=O)NC3=O)[C@H]2[C@H](C)O1 :: 2.66
7. C[C@@H]1CN2c3c(cc4c(-n5ncnc5[C@H](C)O)noc4c3F)CC3(C(=O)NC(=O)NC3=O)[C@H]2[C@H](C)O1 :: 2.98
8. C[C@@H]1CN2c3c(cc4c(-n5nccn5)noc4c3F)CC3(C(=O)NC(=O)NC3=O)[C@H]2[C@H](C)O1 :: 2.91

* * *

# Tested on: L5178Y
# assay-procedure: Genotoxicity in mouse L5178Y cells using DAPI staining by microscopy based micronucleation assay
# Format: toxicity, cell-based
parameter-measured: NOAEL

1) C[C@@H]1CN2c3c(cc4c(-n5ncnc5NCCN(C)C)noc4c3F)CC3(C(=O)NC(=O)NC3=O)[C@H]2[C@H](C)O1 :: > 400 µM
2) C[C@@H]1CN2c3c(cc4c(-n5cncn5)noc4c3Cl)CC3(C(=O)NC(=O)NC3=O)[C@H]2[C@H](C)O1 :: < 6 µM
3) C[C@@H]1CN2c3c(cc4c(N5C(=O)OC[C@@H]5C)noc4c3F)CC3(C(=O)NC(=O)NC3=O)[C@H]2[C@H](C)O1 [ZOLIFLODACIN] :: > 400 µM

* * *

Reported solubility values for the following compounds.
# assay-procedure: Solubility of the compound by high throughput solubility assay
# Format: physicochemical
parameter-measured: solubility

1. C[C@@H]1CN2c3c(cc4c(-n5ncnc5N5CCOCC5)noc4c3F)CC3(C(=O)NC(=O)NC3=O)[C@H]2[C@H](C)O1 :: > 1000 µM
2. C[C@@H]1CN2c3c(cc4c(-n5ncnc5CO)noc4c3F)CC3(C(=O)NC(=O)NC3=O)[C@H]2[C@H](C)O1 :: > 1000 µM
3. C[C@@H]1CN2c3c(cc4c(-n5cnnc5)noc4c3F)CC3(C(=O)NC(=O)NC3=O)[C@H]2[C@H](C)O1 :: > 1000 µM
4. C[C@@H]1CN2c3c(cc4c(-n5ncnc5NCCN(C)C)noc4c3F)CC3(C(=O)NC(=O)NC3=O)[C@H]2[C@H](C)O1 :: > 1000 µM
5. C[C@@H]1CN2c3c(cc4c(-n5ncnc5N(C)C)noc4c3F)CC3(C(=O)NC(=O)NC3=O)[C@H]2[C@H](C)O1 :: > 1000 µM
